test system: LL/2 lung cancer tumor endothelial cells; test: Lung LL2 ex vivo model of tumor angiogenesis; assay type: cell-based, mouse; details: Mus musculus, Endothelial cell, 48 h, read-out: Cell death
Lab note: compare cytotoxicity at 20 µM against 10%. Equal or greater, write Criterion met. Smaller, write Criterion not met.

compound	group
CCc1ccc(S(=O)(=O)c2cnc3ccc(OC(F)(F)F)cc3c2N2CCC(OCCN(CC)CC)CC2)cc1	Criterion met
CCCCCCCCCCCCCCOc1ccc(S(=O)(=O)c2cnc3ccc([S+](C)[O-])cc3c2N2CCC(N3CCC(N4CCCC(O)C4)CC3)CC2)cc1F (stereo not drawn)	Criterion met
COc1ccc(S(=O)(=O)c2cnc3cc(OC)c(OC)cc3c2-n2cncn2)cc1OC	Criterion not met
O=S(=O)(c1ccc(OC(F)(F)F)cc1)c1cnc2ccc(OC(F)(F)F)cc2c1N1CCC(N2CCCCC2)CC1	Criterion not met
CCCCCCCOc1ccc(S(=O)(=O)c2cnc3ccc([S+](C)[O-])cc3c2N2CCC(N3CCN(CCO)CC3)CC2)cc1 (stereo not drawn)	Criterion met
CCOC(=O)c1ccc2ncc(S(=O)(=O)c3ccc(CC)cc3)c(-n3cncn3)c2c1	Criterion met

* * *

test system: CT26.CL25 colon cancer tumor endothelial cells; test: Colon CT26 ex vivo model of tumor angiogenesis; assay type: cell-based, mouse; settings: Mus musculus, Endothelial cell, 48 h, read-out: Cell death

compound	cytotoxicity at 10 µM
COc1ccc(S(=O)(=O)c2cnc3ccc(CC#N)cc3c2-n2cncn2)cc1	50%
CCCCCCCOc1ccc(S(=O)(=O)c2cnc3ccc([S+](C)[O-])cc3c2N2CCC(N3CCCN(C)CC3)CC2)cc1 (stereo not drawn)	90%
CCCCCCCOc1ccc(S(=O)(=O)c2cnc3ccc([S+](C)[O-])cc3c2N2CCC(N3CCN(C)CC3)CC2)cc1 (stereo not drawn)	80%
CCCCOc1ccc(S(=O)(=O)c2cnc3ccc([S+](C)[O-])cc3c2N2CCC(N3CCCN(C)CC3)CC2)cc1 (stereo not drawn)	0%
CCCCCCCOc1ccc(S(=O)(=O)c2cnc3ccc([S+](C)[O-])cc3c2N2CCC(N3CCN(CCO)CC3)CC2)cc1 (stereo not drawn)	100%
CCCCCCCOc1ccc(S(=O)(=O)c2cnc3ccc([S+](C)[O-])cc3c2N2CCC(N3CCC(N4CCCCC4)CC3)CC2)cc1 (stereo not drawn)	100%
CCCCCCCOc1ccc(S(=O)(=O)c2cnc3ccc([S+](C)[O-])cc3c2N2CCCN(CCN3CCCCC3)CC2)cc1 (stereo not drawn)	0%
COc1ccc(S(=O)(=O)c2cnc3ccc(OC(F)(F)F)cc3c2-n2cncn2)cc1	100%
O=S(=O)(c1ccc(OC(F)(F)F)cc1)c1cnc2ccc(OC(F)(F)F)cc2c1-n1cncn1	100%
COc1ccc(S(=O)(=O)c2cnc3ccc([N+](=O)[O-])cc3c2-n2cncn2)cc1	100%
CCOC(=O)c1ccc2ncc(S(=O)(=O)c3ccc(CC)cc3)c(-n3cncn3)c2c1	100%
COc1ccc(S(=O)(=O)c2cnc3ccc(OC(F)(F)F)cc3c2-n2cncn2)cc1OC	100%

* * *

tested on: LL/2 lung cancer tumor endothelial cells; assay: Lung LL2 ex vivo model of tumor angiogenesis; format: cell-based, mouse; settings: Mus musculus, Endothelial cell, 48 h, read-out: Cell death
Parameter: cytotoxicity at 20 µM. Scope: all listed entries.

compound	cytotoxicity at 20 µM (%)
COc1ccc(S(=O)(=O)c2cnc3ccc(OC(F)(F)F)cc3c2N2CCC(N3CCC(O)CC3)CC2)cc1	10
CCCCCCCCCCCCOc1ccc(S(=O)(=O)c2cnc3ccc([S+](C)[O-])cc3c2N2CCC(N3CCN(CCO)CC3)CC2)cc1 (stereo not drawn)	10
COc1ccc(S(=O)(=O)c2cnc3ccc(CC#N)cc3c2N2CCC(N3CCCCC3)CC2)cc1	10
